Target: T1, human CD4 on cells (SKW3 cells; human PBMCs) (human, UniProt P01730 26-458)
T1 construct: whole, on cells; SKW3 CD4 knockout cells served as the negative cell line; also called hCD4
Assay: FACS binning on SKW3 cells pre-incubated with supernatant; competitor OKT4a read with anti-human A647 secondary; background 5000, max binding 35000
Readout kind: SKW3 FACS Binning OKT4a anti-hu A647 Secondary
Number, no unit, nothing else.

Binder	Numeric readout
75110_12C19A (antibody, IgG1, V domains shown, Tested as non-clonal AlivaMab Mouse Kappa hybridoma supernatant: human variable domains and human kappa, mouse Fc) VH: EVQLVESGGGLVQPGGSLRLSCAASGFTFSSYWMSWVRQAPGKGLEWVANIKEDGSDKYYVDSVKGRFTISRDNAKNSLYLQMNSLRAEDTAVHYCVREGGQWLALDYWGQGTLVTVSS VL: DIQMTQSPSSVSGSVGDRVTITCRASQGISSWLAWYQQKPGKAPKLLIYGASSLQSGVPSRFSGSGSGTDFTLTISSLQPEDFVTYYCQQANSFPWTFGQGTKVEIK	7140

Consider the record given below.
Quick one: SKW3 FACS Binning OKT4a anti-hu A647 Secondary of 75110_04P06A (antibody, IgG1, V domains shown, Tested as non-clonal AlivaMab Mouse Kappa hybridoma supernatant: human variable domains and human kappa, mouse Fc) VH: EVQLVESGGGLVQPGGSLRLSCAASGFTFSNYDMHWVRQATGKGLEWVSTIGTAGDTYYPGSVKGRFTISRENAKNSLYLQMNSLRAGDTAVYYCARGGDYYYGMDVWGQGTTVTVSS VL: EIVLTQSPDTLSLSPGERATLSCRASQSLSSVYLAWYQQKPGQAPRLLIYGASSRATGIPDRFSGSGSGTDFTLTINRLEPEDFVVYYCQQYGSSPFTFGPGTKVDIK ? 37400

Source: patent US20220112288A1
